Target sequence: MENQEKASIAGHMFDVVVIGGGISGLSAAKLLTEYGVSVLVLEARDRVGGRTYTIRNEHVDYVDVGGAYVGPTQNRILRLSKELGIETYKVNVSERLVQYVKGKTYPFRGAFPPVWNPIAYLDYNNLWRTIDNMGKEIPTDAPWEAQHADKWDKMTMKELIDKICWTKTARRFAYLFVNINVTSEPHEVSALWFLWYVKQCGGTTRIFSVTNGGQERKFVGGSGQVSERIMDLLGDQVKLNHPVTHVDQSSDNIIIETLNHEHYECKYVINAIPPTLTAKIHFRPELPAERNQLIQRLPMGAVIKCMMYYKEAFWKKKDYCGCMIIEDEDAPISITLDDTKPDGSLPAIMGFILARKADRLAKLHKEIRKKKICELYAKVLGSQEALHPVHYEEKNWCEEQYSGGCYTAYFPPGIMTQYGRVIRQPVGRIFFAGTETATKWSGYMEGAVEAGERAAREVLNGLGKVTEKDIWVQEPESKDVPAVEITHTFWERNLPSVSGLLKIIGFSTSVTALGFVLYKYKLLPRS
Kindly supply the reported IC50 values for the records listed here.

input: For the compound shown here, O=C1CN(c2ccc(CNC(=O)c3ccccc3Cl)cn2)CCN1 [(1b)] , give the reported IC50.
output: > 10 µM

input: Similarly, Cc1nccc(Cl)c1C(=O)NCc1ccc(N2CCNC(=O)C2)nc1 [(1c)] ?
output: > 10 µM

----------
Kindly supply the reported HepaRG 3D Spheroid MEC values for the records listed here.
System: HepaRG spheroids
TEST SUMMARY: HepaRG 3D spheroid assay (hepatotoxic liability)
Assay type: cell-based
STUDY CONDITIONS: minimum effective concentration crossing vehicle control threshold of cell health marker; dosed days 1, 4, 7, 10, 13; 100 μM = highest concentration tested
State the answer as a number, implicitly in µM.

input: For the compound shown here, `Cc1cccc(Cl)c1C(=O)NCc1ccc(N2CCNC(=O)C2)nc1` , give the reported HepaRG 3D Spheroid MEC.
output: 54.1

input: Similarly, `O=C1CN(c2ccc(CNC(=O)c3c(Cl)cccc3Cl)cn2)CCN1` ?
output: 29.4

----------
SYSTEM: recombinant human ALDH-2 (Homo sapiens, UniProt P05091)
Sequence (P05091 18-517): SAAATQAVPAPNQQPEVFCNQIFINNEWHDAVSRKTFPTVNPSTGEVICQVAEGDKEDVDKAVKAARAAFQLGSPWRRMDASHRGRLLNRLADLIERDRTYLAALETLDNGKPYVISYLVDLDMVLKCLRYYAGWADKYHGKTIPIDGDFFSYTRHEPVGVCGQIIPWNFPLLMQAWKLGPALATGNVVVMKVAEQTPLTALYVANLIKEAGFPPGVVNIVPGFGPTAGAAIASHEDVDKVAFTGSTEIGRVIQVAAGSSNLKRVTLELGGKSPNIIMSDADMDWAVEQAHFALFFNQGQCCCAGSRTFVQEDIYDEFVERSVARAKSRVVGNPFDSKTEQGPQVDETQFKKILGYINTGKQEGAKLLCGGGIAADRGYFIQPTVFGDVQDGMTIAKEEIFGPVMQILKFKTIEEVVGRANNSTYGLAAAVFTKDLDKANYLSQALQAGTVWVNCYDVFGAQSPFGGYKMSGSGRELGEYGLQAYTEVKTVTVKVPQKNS
TEST SUMMARY: ALDH-2 inhibition assay
STUDY CONDITIONS: 60 min pre-incubation; 10 μM = highest concentration tested; read-out: Enzymatic Assays IC50 ALDH2
ENDPOINT NAME: IC50 (nM)
State the answer as a number, implicitly in nM.

input: For the compound shown here, `O=C1CN(c2ccc(CNC(=O)c3c(Cl)cccc3Cl)cn2)CCN1` , give the reported IC50.
output: 8

input: Similarly, `Cc1cccc(Cl)c1C(=O)NCc1ccc(N2CCNC(=O)C2)nc1` ?
output: 12

input: Similarly, `Cc1nccc(Cl)c1C(=O)NCc1ccc(N2CCNC(=O)C2)nc1` ?
output: 35

input: Similarly, `O=C1CN(c2ccc(CNC(=O)c3ccccc3Cl)cn2)CCN1` ?
output: 58
